Test system: Bacillus subtilis
PROTOCOL: Antibacterial activity against Bacillus subtilis 168 harboring AAC(6')/APH(2'')-pRB374 by double-dilution technique
Type: functional
READOUT: MIC (µg/mL)
# unit: µg/mL | format: bare number

Use these answered entries as a reference point.
| MOL_SMILES | MIC / µg/mL |
| --- | --- |
| NC[C@H]1O[C@H](O[C@H]2[C@H](O)[C@@H](O[C@@H]3O[C@H](CSCCOCCSSCCOCCSC[C@H]4O[C@@H](O[C@@H]5[C@@H](O)[C@H](O[C@H]6O[C@H](CN)[C@@H](O)C[C@H]6N)[C@@H](N)C[C@H]5N)[C@H](O)[C@@H](N)[C@@H]4O)[C@@H](O)[C@H](N)[C@H]3O)[C@H](N)C[C@@H]2N)[C@H](N)C[C@@H]1O | 37.5 |
| NC[C@H]1O[C@H](O[C@H]2[C@H](O)[C@@H](O[C@@H]3O[C@H](CSCCOCCSSCCOCCSCC(=O)N[C@H](CO)[C@H](O)c4ccc([N+](=O)[O-])cc4)[C@@H](O)[C@H](N)[C@H]3O)[C@H](N)C[C@@H]2N)[C@H](N)C[C@@H]1O | 150 |
| NC[C@H]1O[C@H](O[C@H]2[C@H](O)[C@@H](O[C@H]3O[C@H](CO)[C@@H](O)[C@H](N)[C@H]3O)[C@H](N)C[C@@H]2N)[C@H](N)C[C@@H]1O | 9.4 |

Please turn your attention to the following entry.
// MIC lookup, compound = NC[C@H]1O[C@H](O[C@H]2[C@H](O)[C@@H](O[C@@H]3O[C@H](CSCCOCCS)[C@@H](O)[C@H](N)[C@H]3O)[C@H](N)C[C@@H]2N)[C@H](N)C[C@@H]1O , result: 75

* * *

System: Staphylococcus epidermidis
PROTOCOL: Antibacterial activity against biofilm negative Staphylococcus epidermidis ATCC 12228 by double-dilution technique
Format: functional
READOUT: log10 of MIC (log10 of the value in µg/mL)
Heads up: the numbers are on a log10 scale; they represent MIC in µg/mL.

// log10 of MIC lookup, compound = NC[C@H]1O[C@H](O[C@H]2[C@H](O)[C@@H](O[C@H]3O[C@H](CO)[C@@H](O)[C@H](N)[C@H]3O)[C@H](N)C[C@@H]2N)[C@H](N)C[C@@H]1O [TOBRAMYCIN] , result: -0.52

// log10 of MIC lookup, compound = NC[C@H]1O[C@H](O[C@H]2[C@H](O)[C@@H](O[C@@H]3O[C@H](CSCCOCCS)[C@@H](O)[C@H](N)[C@H]3O)[C@H](N)C[C@@H]2N)[C@H](N)C[C@@H]1O , result: 1.20

* * *

PROTOCOL: Drug metabolism assessed as aminoglycoside 3-N-acetyltransferase AAC(3)-IV (unknown origin)-mediated conversion at 100 uM by micro plate reader analysis relative to tobramycin
Format: ADME
READOUT: fold change (FC)
Number only, please.

| MOLECULE | fold change (FC) |
| --- | --- |
| NC[C@H]1O[C@H](O[C@H]2[C@H](O)[C@@H](O[C@@H]3O[C@H](CSCCOCCSSCCOCCSC[C@H]4O[C@@H](O[C@@H]5[C@@H](O)[C@H](O[C@H]6O[C@H](CN)[C@@H](O)C[C@H]6N)[C@@H](N)C[C@H]5N)[C@H](O)[C@@H](N)[C@@H]4O)[C@@H](O)[C@H](N)[C@H]3O)[C@H](N)C[C@@H]2N)[C@H](N)C[C@@H]1O | 2 |
| NC[C@H]1O[C@H](O[C@H]2[C@H](O)[C@@H](O[C@@H]3O[C@H](CSCCOCCSSCCOCCSCC(=O)N[C@H](CO)[C@H](O)c4ccc([N+](=O)[O-])cc4)[C@@H](O)[C@H](N)[C@H]3O)[C@H](N)C[C@@H]2N)[C@H](N)C[C@@H]1O | 1.4 |
| CCC[C@@H]1C[C@@H](C(=O)NC([C@H]2O[C@H](SC)[C@H](O)[C@@H](O)[C@H]2O)[C@@H](C)SCCOCCSSCCOCCSC[C@H]2O[C@@H](O[C@@H]3[C@@H](O)[C@H](O[C@H]4O[C@H](CN)[C@@H](O)C[C@H]4N)[C@@H](N)C[C@H]3N)C(O)[C@@H](N)[C@@H]2O)N(C)C1 (single isomer, unassigned) | 1.4 |

// fold change (FC) lookup, molecule = NC[C@H]1O[C@H](O[C@H]2[C@H](O)[C@@H](O[C@@H]3O[C@H](CSCCOCCSCC(=O)N[C@H](CO)[C@H](O)c4ccc([N+](=O)[O-])cc4)[C@@H](O)[C@H](N)[C@H]3O)[C@H](N)C[C@@H]2N)[C@H](N)C[C@@H]1O , result: 1.8

// provenance: ChEMBL document CHEMBL2417431
